experiment: Biodistribution in mammary tumor-bearing rats primed with estradiol; format: in vivo, rat; settings: rat, lung, iv, 10 uCi/rat, 6 h, read-out: Lung uptake
Observed property: tissue uptake at 6 h (%ID/g)
The figure you give is taken to be in %ID/g; do not add the unit.

Which tissue uptake at 6 h is listed for CCN(CC)CCOc1ccc(/C(=C(/CCC[131I])c2ccccc2)c2ccccc2)cc1 [^131 I-IODOTAMOXIFEN] ?
3.06

###

Target chain: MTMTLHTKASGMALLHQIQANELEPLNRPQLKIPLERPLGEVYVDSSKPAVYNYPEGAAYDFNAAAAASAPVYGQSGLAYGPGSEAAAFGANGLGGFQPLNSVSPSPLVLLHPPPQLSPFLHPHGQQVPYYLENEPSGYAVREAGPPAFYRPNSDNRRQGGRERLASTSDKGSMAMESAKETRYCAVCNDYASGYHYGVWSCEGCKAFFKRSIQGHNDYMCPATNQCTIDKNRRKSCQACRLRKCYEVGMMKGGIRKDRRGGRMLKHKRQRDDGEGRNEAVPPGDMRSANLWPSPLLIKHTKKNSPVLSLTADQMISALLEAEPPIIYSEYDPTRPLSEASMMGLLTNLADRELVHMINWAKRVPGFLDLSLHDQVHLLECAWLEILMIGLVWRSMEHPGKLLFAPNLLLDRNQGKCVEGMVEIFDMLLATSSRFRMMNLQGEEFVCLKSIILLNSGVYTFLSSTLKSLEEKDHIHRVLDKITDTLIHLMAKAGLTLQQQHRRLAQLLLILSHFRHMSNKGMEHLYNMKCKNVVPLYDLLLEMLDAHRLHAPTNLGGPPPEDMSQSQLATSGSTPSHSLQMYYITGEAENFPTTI
Exercise: for every item that follows, state its recorded pKi.
To interpret pKi, take it as minus log10 of a concentration measured in moles per litre.

Requested read-out: pKi. Entry: CCN(CC)CCOc1ccc(/C(=C(/CCCN=[N+]=[N-])c2ccccc2)c2ccccc2)cc1 [TX-N3 (trans), Tamoxifen Azide]
4.73

Param item: CCN(CC)CCOc1ccc(/C(=C(/CCCN)c2ccccc2)c2ccccc2)cc1 [TX-NH2 (trans), Amino Tamoxifen]
3.82
